Biological target: T1, human interleukin-23 receptor (IL23R) (human, UniProt Q5VWK5 24-355, limits assumed)
T1 construct: also called human IL23R
T1 sequence (looked up): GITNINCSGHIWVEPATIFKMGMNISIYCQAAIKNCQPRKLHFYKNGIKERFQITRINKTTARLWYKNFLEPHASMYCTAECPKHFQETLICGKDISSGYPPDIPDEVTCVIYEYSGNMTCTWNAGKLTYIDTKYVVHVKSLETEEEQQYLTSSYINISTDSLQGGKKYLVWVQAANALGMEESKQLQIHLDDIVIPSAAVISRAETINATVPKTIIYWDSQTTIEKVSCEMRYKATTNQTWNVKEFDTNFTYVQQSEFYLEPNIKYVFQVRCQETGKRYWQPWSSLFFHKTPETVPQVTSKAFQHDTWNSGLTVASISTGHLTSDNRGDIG
Experiment: SPR, scFv
Overview of reported kon across a group of binders:

binder: Vκ1/VH4 consensus (uncapped), human IL23R specific scFv (scFv, scFv VL-linker-VH, made in E. coli; Vκ framework IV (uncapped, full consensus); also called Vκ1VH4 uncapped) scFv: DIQMTQSPSSLSASVGDRVTITCQASENIYSFLAWYQQKPGKAPKLLIYSASKLAAGVPSRFSGSGSGTDFTLTISSLQPEDFATYYCQQTNRYSNPDIYNVFGQGTKVEIKRGGGGSGGGGSGGGGSGGGGSQVQLQESGPGLVKPSETLSLTCTVSGIDFNSNYYMCWIRQPPGKGLEWIGCIYVGSHVNTYYANWAKGRVTISVDTSKNQFSLKLSSVTAADTAVYYCATSGSSVLYFKFWGQGTLVTVSS
kon [M⁻¹ s⁻¹]: 1.78e+06

binder: Vκ3/VH1B consensus λ-capped, human IL23R specific scFv (scFv, scFv VL-linker-VH, made in E. coli; also called Vκ3VH1B capped) scFv: DIVLTQSPATLSLSPGERATLSCQASENIYSFLAWYQQKPGQAPRLLIYSASKLAAGVPARFSGSGSGTDFTLTISSLEPEDFAVYYCQQTNRYSNPDIYNVFGGGTKLTVLGGGGGSGGGGSGGGGSGGGGSQVQLVQSGAEVKKPGASVKVSCKASGIDFNSNYYMCWVRQAPGQGLEWMGCIYVGSHVNTYYANWAKGRVTMTRDTSISTAYMELSSLRSEDTAVYYCATSGSSVLYFKFWGQGTLVTVSS
kon [M⁻¹ s⁻¹]: 2.8e+06

binder: Vκ3/VH5 consensus λ-capped, human IL23R specific scFv (scFv, scFv VL-linker-VH, made in E. coli; also called Vκ3VH5 capped) scFv: DIVLTQSPATLSLSPGERATLSCQASENIYSFLAWYQQKPGQAPRLLIYSASKLAAGVPARFSGSGSGTDFTLTISSLEPEDFAVYYCQQTNRYSNPDIYNVFGGGTKLTVLGGGGGSGGGGSGGGGSGGGGSEVQLVQSGAEVKKPGESLKISCKGSGIDFNSNYYMCWVRQMPGKGLEWMGCIYVGSHVNTYYANWAKGQVTISADKSISTAYLQWSSLKASDTAMYYCATSGSSVLYFKFWGQGTLVTVSS
kon [M⁻¹ s⁻¹]: 1.5e+06
